Test system: SF-539 CNS
measurement.notes: NCI-60 one-dose screen, 48 h (100 = growth as untreated, 0 = no growth, -100 = all killed)
experimental.parameters: 10 µM unless noted
The panel holds about 83,000 compounds, 20% with a hit somewhere; the sample as a whole holds those more often.
result.type: growth (%)
Reply with just the number (in %).

Asked: Field request: growth | item: CC1=C([Se]CC(OC(=O)CC[Se]c2ccccc2)C(=O)NC(C)(C)C)C(=O)c2ccccc2C1=O (stereo not given)
Given back: -99

Asked: Same lookup for `COC(=O)/C=C1/SC(=Nc2ccc(C(F)(F)F)cc2)N(CCc2c[nH]c3ccc(O)cc23)C1=O` , please.
Given back: -37.3

Asked: Subsequent entry: `O=S(=O)(NCCCNc1nccc(-c2c(-c3ccc(F)c(O)c3)nc3occn23)n1)c1ccc(Cl)cc1`
Given back: 87.5

Asked: Now the compound `COc1ccc(Nc2nnc(-c3ccc(OC)c(OC)c3)o2)cc1`
Given back: 92.1

Asked: Same question for `O=C(CSc1nc2ccc([N+](=O)[O-])cc2[nH]1)Nc1ccc([N+](=O)[O-])cc1` please.
Given back: 41.5

Asked: Queued: `CCOC(=O)C#Cc1c(C(=O)OCC)nnn1Cc1ccc([N+](=O)[O-])cc1`
Given back: 47.3

Asked: Ok, now `CCCCCOC(=O)c1c(C)[nH]c(/C=C2\N=C(c3ccc[nH]3)C=C2OC)c1C`
Given back: -41.6

Asked: Now try `O=C1/C(=C/c2cn(-c3ccccc3)nc2-c2ccccc2)SC(=S)N1C1CCCCC1` .
Given back: 99.4

Asked: Request: `Cc1[nH]c(C(=O)Nc2ccccc2OC2CCNCC2)c(Cl)c1Cl`
Given back: -94.1

Asked: `CCN(CC)CCCCCNc1cc(OC(=O)c2ccc(Cl)cc2)cc2cccnc12` , same question.
Given back: 104

---

Tested on: HCC-2998 colon
measurement.notes: NCI-60 one-dose screen, 48 h (100 = growth as untreated, 0 = no growth, -100 = all killed)
experimental.parameters: 10 µM unless noted
Compounds without any hit were thinned out: in the full panel of roughly 83,000, 20% have a hit. Active and inactive are the calls of the source. How the source made its calls: active means growth percent below 10; inactive means the rest.
For each entry below, report its growth value.

Asked: I would be grateful if you could share the reported growth for `NC(N)=NCCCCCNc1noc(Cc2c[nH]c3cc(Br)ccc23)n1` .
Given back: 76.1% (inactive)

Asked: Next record, please: `O=C(O)c1ccc(-n2cc(/C=N/Nc3ccccc3)c(-c3ccc(F)cc3F)n2)cc1`
Given back: 81.1% (inactive)

Asked: Here is the next molecule: `Nc1nc2ccccc2c2c(=O)c3cccc(Cl)c3sc12`
Given back: 63% (inactive)

---

So I've got a bunch of molecules here, and I need their growth values.
Test system: SNB-19 CNS
measurement.notes: NCI-60 one-dose screen, 48 h (100 = growth as untreated, 0 = no growth, -100 = all killed)
experimental.parameters: 10 µM unless noted
This is part of a sample that, as a whole, favours compounds with a hit. Of some 83,000 tested, about 20% had one in any assay. The source made the active and inactive calls. How the source made its calls: active means growth percent below 10; inactive means the rest.

Asked: Item `COc1ccc(-c2ccc(=O)oc2-c2cc(OC)c(OC)c(OC)c2)cc1O` with SNB-19 CNS - growth?
Given back: 25.3% (inactive)

Asked: Same for `CCOC(=O)c1c(C(=O)c2cn(C)c3ccc(Br)cc23)c(-c2cn(C)c3ccc(Br)cc23)n(NC(=O)OC(C)(C)C)c1C`
Given back: 50.8% [100 µM] (inactive)

Asked: For `CNC(=O)c1ccccc1Oc1nc(Nc2cc(OC)c(OC)c(OC)c2)ncc1Br` then?
Given back: 94.9% (inactive)

Asked: Also need `C#Cc1c2c(c(OC)c3c1OCO3)[C@H]([C@H]1OC(=O)c3c1ccc(OC)c3OC)N(C)CC2` , thanks.
Given back: 92.7% (inactive)

Asked: Now consider CC1CN(S(=O)(=O)c2oc(-c3ccc(Cl)cc3)nc2C#N)CC(C)O1 (stereo unspecified) .
Given back: 97.5% (inactive)

Asked: What do you get for `NC(=O)c1cc(I)ccc1NC(=O)/C=C/c1ccccc1` ?
Given back: 27.3% (inactive)

---

Consider the following molecules; for each one, report its growth.
Test system: SK-OV-3 ovarian
measurement.notes: NCI-60 one-dose screen, 48 h (100 = growth as untreated, 0 = no growth, -100 = all killed)
experimental.parameters: 10 µM unless noted
Compounds without any hit were thinned out: in the full panel of roughly 83,000, 20% have a hit. Activity calls are given as the source filed them. How the source made its calls: active means growth percent below 10; inactive means the rest.

Asked: Quick check: growth of `CC(=O)Oc1ccc(N2C(=O)C(Cl)=C(Nc3cccc(C(F)(F)F)c3)C2=O)cc1` ?
Given back: 87.9% (inactive)

Asked: Entry CCN(CC)CC(O)COc1c(Br)c(Br)c(Br)c2c1OC(C)(C)C2 (stereo not drawn) please
Given back: 97.9% (inactive)

Asked: Please give the result for `C#COc1cccc(Nc2c(C#N)cnc3ncc(NC(=O)CCl)cc23)c1` too.
Given back: 60.4% [6.25 µM] (inactive)

Asked: Field entry: `Cc1[nH]c(=O)[nH]c(=O)c1Br`
Given back: 115% (inactive)

Asked: Proceed to `CCOC(=O)Cc1cnc(N/N=C(\C)c2cc3ccccc3o2)s1`
Given back: 92.1% (inactive)

Asked: Also need `CCCCNC(=O)Oc1ccc(/C(=C(/C)Cc2ccc(OC)cc2)c2ccc(OCCN(CC)CC)cc2)cc1` , thanks.
Given back: 97% (inactive)

Asked: Another molecule: `CC(C)c1ccc(Cc2cnc(NC(=O)c3cc(Br)cs3)s2)cc1`
Given back: 28.6% (inactive)

Asked: Moving on to `O=C(c1ccncc1)N1N=C(c2ccc(Cl)cc2)C[C@H]1c1cn(-c2ccccc2)nc1-c1ccccc1`
Given back: 83.4% (inactive)

Asked: Param item: `CC/C(=C(/c1ccc(Cl)cc1)c1ccc(OCCN(C)C)cc1)c1ccc(Cl)cc1`
Given back: 90% (inactive)

Asked: // same read-out, input: COC(=O)C1Cc2ccccc2CN1C(=O)c1ccc2c(c1)Cc1ccccc1-2 (stereo not drawn)
Given back: 86% [50 µM] (inactive)

Asked: Now this one: C#CCNC(=O)[C@H](CC)[C@H]1CC[C@H](C)[C@H]([C@@H](C)[C@H](O)[C@H](C)C(=O)[C@H](CC)C2O[C@]3(C=CC(=O)[C@]4(CC[C@@](C)([C@H]5CC[C@](O)(CC)[C@H](C)O5)O4)O3)[C@H](C)C[C@@H]2C)O1 (stereo partly drawn)
Given back: 68.2% (inactive)

Asked: Moving on to `N#Cc1c(-c2ccc(Cl)cc2)nc(NN2C(=O)c3ccccc3C2=O)nc1N1CCOCC1`
Given back: 106% (inactive)

Asked: Cool, now `c1cc2c(ccc3[nH]c(-c4ccc5[nH]ncc5c4)c4c(c32)CCCC4)n1`
Given back: 63.4% (inactive)

Asked: Also need `CNC(=O)c1ccccc1Oc1nc(Nc2cc(OC)c(OC)c(OC)c2)ncc1Br` , thanks.
Given back: 70.1% (inactive)

Asked: Lookup `C/C(Cc1ccc(Cl)cc1)=C(\c1ccc(O)cc1)c1ccc(Cl)cc1`
Given back: 112% (inactive)

Asked: Follow-up item: `Ic1ccc(OCCCCn2ccnc2)cc1`
Given back: 80.9% (inactive)

Asked: Queued: `Cc1ccc(C[P+](c2ccccc2)(c2ccccc2)c2ccccc2)cc1`
Given back: 6.84% (active)

Asked: Try this molecule too: `CCCCCC(/C=N\NC(=S)N/N=C/C(=C/c1ccccc1)CCCCC)=C\c1ccccc1`
Given back: 85.9% (inactive)

---

Would you mind telling me the reported growth of each entry?
Test system: HCT-116 colon
measurement.notes: NCI-60 one-dose screen, 48 h (100 = growth as untreated, 0 = no growth, -100 = all killed)
experimental.parameters: 10 µM unless noted
About 83,000 compounds went through this panel and 20% of them were active in at least one assay; those are over-represented in the sample as a whole.
// return numeric value only (unit: %, not printed)

Asked: # input molecule: `O=C(Nc1ccc(Oc2cccc(Cl)c2)c(Cl)c1)c1cccnc1` ; wanted: its growth
Given back: 29.9

Asked: Consider next the molecule `CCOC(=O)c1cc(C(=O)c2cc(OC)c(OC)c(OC)c2)n2ncccc12` in the same way.
Given back: 11.8

Asked: Now this one: `c1ccc2cc(C[n+]3ccn(CCCCCCCCCCn4cc[n+](Cc5ccc6ccccc6c5)c4)c3)ccc2c1`
Given back: 13.3

Asked: Can you handle `O=C(c1ccncc1)N1N=C(c2ccc(Cl)cc2)C[C@H]1c1cn(-c2ccccc2)nc1-c1ccccc1` next?
Given back: 73.5

Asked: Next: `O=[N+]([O-])c1ccc(O)cc1Br`
Given back: 95.4

Asked: Lookup `O=C1/C(=C/c2cccc(F)c2)CN(C(=O)C(Cl)Cl)C/C1=C\c1cccc(F)c1`
Given back: -82.8

Asked: Again, but for `C#CCOC(=O)/C=C/c1cn(-c2ccccc2)nc1-c1ccc(OC)cc1`
Given back: 74.8

Asked: Now give it for CC(=O)N1N=C(c2ccc(Nc3nc(Nc4ccccc4)nc(Nc4ccccc4)n3)cc2)CC1c1ccccc1 (stereo not drawn) too.
Given back: 77.1

Asked: What do we get for `Clc1cc(Cl)c(Cl)c(-c2nnc(SCc3ccncc3Br)o2)c1` ?
Given back: 88.8

Asked: Another: `N=C(N)c1ccc(-c2ccc(-c3ccc(Cl)cc3Cl)s2)cc1`
Given back: -60.1

Asked: Also need `Nc1nc2ccccc2c2c(=O)c3cccc(Cl)c3sc12` , thanks.
Given back: 64.8

Asked: Cool, now `N#Cc1c(-c2ccccc2)[nH]c2ncc(-c3ccccc3)n2c1=O`
Given back: 87

Asked: Next up: `COc1ccc(C(=O)N2c3ccccc3Sc3ccccc32)c(OC)c1`
Given back: 9.42

Asked: What about this molecule? CC(=O)N1N=C(c2ccc(Nc3nc(Nc4ccccc4)nc(Nc4ccccc4)n3)cc2)CC1c1cccc([N+](=O)[O-])c1 (stereo not drawn)
Given back: 95.5

Asked: // same read-out, input: `COc1cc2oc(-c3cccc(NC(=O)c4ccccc4)c3)cc(=O)c2c(OC)c1OC`
Given back: 67.7

Asked: Note, next up: `COc1ccc(NC(=O)c2sc3nc(C)c(C(=O)/C=C/c4ccccc4)cc3c2N)cc1`
Given back: 12.3

Asked: Input `Ic1ccc(OCCCCn2ccnc2)cc1`
Given back: 65.9

Asked: What do you have for `COCCNC(=O)Nc1ccc2nc(-c3cccs3)c(-c3cccs3)nc2c1` ?
Given back: 92.7

Asked: What about `O=C1C(=O)N(Cc2ccc(-c3ccccc3)cc2)c2ccc(OC(F)(F)F)cc21` ?
Given back: 9.92

Asked: Moving on to the next molecule: CN(C)CC1CCC(CN(C)C)C1=O (stereo not drawn)
Given back: 93.9

Asked: Check `O=C1c2c(c3c4ccccc4[nH]c3c3ccc4ccccc4c23)C(=O)N1CCN1CCNCC1` too.
Given back: -81.3

Asked: Same thing, different molecule: `Nc1cnc(C(=O)NNc2nc3cc(F)ccc3n3cccc23)cn1`
Given back: 36

Asked: Can you handle `CCCCNC(=O)Oc1ccc(/C(=C(/C)Cc2ccc(OC)cc2)c2ccc(OCCN3CCCC3)cc2)cc1` next?
Given back: 39.3

Asked: Next molecule: CCOC(=O)C(=O)C(C(=O)OCC)c1ccccc1 (stereo not drawn)
Given back: 96.2

Asked: Another molecule to check: `COc1cc(-c2nc3sccn3c2-c2ccnc(NCCNS(=O)(=O)c3ccccc3)n2)ccc1F`
Given back: 42.6

Asked: # repeat for `CCOC(=O)c1csc(NC(=O)COc2ccc(/C=C3\Oc4ccccc4C3=O)cc2)n1`
Given back: 82.5

Asked: Input NC(Cc1ccc(O)c([N+](=O)[O-])c1)C(=O)O (stereo not drawn)
Given back: 98.5

Asked: Try the molecule `COc1ccc(C/C(C)=C(/c2ccc(OCCN(C)C)cc2)c2ccc(OC(=O)NCc3ccccc3)cc2)cc1`
Given back: 52.1
